# measurementNotes: Cmax in Sprague-Dawley rat at 30 mg/kg, po measured after 12 hrs by LC/MS/MS method
# Format: ADME, organism-based
# Set-up: dose 30 mg/kg, route oral
# measurementParameters: in vivo
measurementName: Cmax (ng/mL)
The reply should contain only the number, in ng/mL.

Entry under review: CC/C=C\C/C=C\C/C=C\C/C=C\C/C=C\C/C=C\CCC(=O)NCCSSC(C)(C)CNC(=O)c1cccnc1 . Reported Cmax?
24.6

These entries and their values trace back to ChEMBL document CHEMBL4000178.
